Tested on: MCF7 breast
protocolSummary: NCI-60 one-dose screen, 48 h
assayConditions: 10 µM unless noted
About 83,000 compounds went through this panel and 20% of them were active in at least one assay; those are over-represented in the sample as a whole. Active and inactive are the calls of the source. The calls were made as follows: active = growth percent below 10; inactive = the rest.
Write down the outcome that applies. Available outcomes: YES = active, NO = inactive

Answered cases to consult:
# compound, experimentalSystem, labelClass
records = [
    ("Nc1nc(N)c2c(n1)NC(c1ccc(Cl)cc1)CC(c1ccc(Nc3nc(NCCO)nc(N4CCOCC4)n3)cc1)=N2 (stereo not drawn)", "MCF7 breast", "NO"),
    ("C=CC(=O)N1CC=C(c2cc3c(N[C@H](C)c4ccccc4)ncnc3[nH]2)CC1", "MCF7 breast", "NO"),
    ("CCCSc1nc(Nc2ccc(/C(C)=N\\NC(N)=S)cc2)c(C#N)c(-c2ccccc2)n1", "MCF7 breast", "NO"),
    ("CCOP(=O)(OCC)OC[C@]12CCC(C)(C)C=C1[C@H]1CC[C@@H]3[C@@]4(C)CC[C@H](OP(=O)(OCC)OCC)C(C)(C)[C@@H]4CC[C@@]3(C)[C@]1(C)CC2", "MCF7 breast", "YES"),
    ("Cc1cccc2c3c(sc12)C(c1ccc(Cl)cc1)c1c(nc(CC(=O)Nc2ccccc2)[nH]c1=O)O3 (stereo not drawn)", "MCF7 breast", "NO"),
]

Lookup: Recorded call for CC(C)(C)c1ccc(C(=O)Nc2sc3c(c2C(N)=O)CCC(O)C3)cc1 (stereo not drawn) ?
Found: YES

Lookup: # outcome recorded in this test, key = C[C@@H](Nc1ncnc2ccc(-c3cnc(Cl)c(NS(C)(=O)=O)c3)cc12)c1ccccc1
Found: NO

Lookup: Which outcome did this test record for the compound CC(=O)C1=C(C)NC(NNC(N)=S)=NC1c1ccccc1 (stereo not drawn) ?
Found: NO
